Target: SFRP-1 (Homo sapiens, UniProt Q8N474)
Sequence (Q8N474 32-314): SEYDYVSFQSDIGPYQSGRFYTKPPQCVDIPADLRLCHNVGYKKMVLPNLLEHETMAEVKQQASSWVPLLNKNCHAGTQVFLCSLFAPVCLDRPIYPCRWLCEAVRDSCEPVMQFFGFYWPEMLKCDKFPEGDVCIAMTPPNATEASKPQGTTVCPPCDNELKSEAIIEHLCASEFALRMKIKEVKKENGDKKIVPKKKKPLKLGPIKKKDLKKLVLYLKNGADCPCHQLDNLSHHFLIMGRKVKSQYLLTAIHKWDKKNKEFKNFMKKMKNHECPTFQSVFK
Assay: Cell-based assay for in vitro measurement of SFRP-1/SARP2 antagonist activity (U2OS cells co-transfected with 16x TCF-tk-Luciferase reporter, Wnt and hSFRP-1)
Conditions: U2OS, read-out: Fold Induction without SFRP-1, Conc 15 μM; single dose; luciferase reporter; cells without SFRP-1 (specificity control)
Listing: fold induction at 15 µM of selected compounds
API doc: respond with a numeric literal and nothing else, no unit.

Worked examples, 3 compounds total:
INSERT INTO results (compound, result) VALUES
  ('O=S(=O)(NCCc1ccncc1)c1cc(S(=O)(=O)c2ccccc2)ccc1Cl', 1),
  ('CC(C)(C)OC(=O)NC1CCN(S(=O)(=O)c2cc(S(=O)(=O)c3ccccc3)ccc2Cl)C1 (stereo not shown)', 1.1),
  ('Cc1ccc(S(=O)(=O)c2ccc(F)cc2)cc1S(=O)(=O)NC1CCNCC1', 1.2);

Exercise: Reported fold induction at 15 µM for CC(C)c1ccc(S(=O)(=O)c2ccc(F)cc2)cc1S(=O)(=O)NC1CCN(C(=O)N2CCOCC2)CC1 : what is it?
Key: 1

Exercise: Look at this compound and give its reported fold induction at 15 µM. Cc1ccccc1S(=O)(=O)c1ccc(C(C)C)c(S(=O)(=O)NC2CCOCC2)c1
Key: 1.2

###

target: SFRP-1 (Homo sapiens, UniProt Q8N474); assay: Cell-based assay for in vitro measurement of SFRP-1/SARP2 antagonist activity (U2OS cells co-transfected with 16x TCF-tk-Luciferase reporter, Wnt and hSFRP-1); settings: U2OS, read-out: Fold Induction with SFRP-1, Conc 15 μM; with SFRP-1; fold induction over SFRP-1 control, single dose
Reported fold induction at 15 µM values for the following compounds.
Lab note: record just the number, no unit beside it.

INSERT INTO assay_data (compound, result) VALUES
  ('Cc1ccc(S(=O)(=O)c2ccccc2)cc1S(=O)(=O)NCC(O)c1ccccc1 (centres unmarked)', 1.8);

// switching to the query compound
Exercise: Would you kindly share the measured fold induction at 15 µM for Cc1ccc(S(=O)(=O)c2ccc(F)cc2)cc1S(=O)(=O)NCCC1CCOCC1 ?
Key: 1.9

###

Target: SFRP-1 (Homo sapiens, UniProt Q8N474)
Sequence (Q8N474 32-314): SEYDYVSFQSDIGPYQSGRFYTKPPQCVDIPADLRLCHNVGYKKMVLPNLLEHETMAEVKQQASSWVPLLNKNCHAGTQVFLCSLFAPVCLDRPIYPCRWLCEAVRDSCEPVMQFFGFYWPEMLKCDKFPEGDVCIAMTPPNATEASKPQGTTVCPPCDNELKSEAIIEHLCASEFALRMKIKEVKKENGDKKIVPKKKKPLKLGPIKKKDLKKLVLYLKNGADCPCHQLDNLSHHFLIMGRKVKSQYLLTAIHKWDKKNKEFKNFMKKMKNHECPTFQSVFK
Assay: Cell-based assay for in vitro measurement of SFRP-1/SARP2 antagonist activity (U2OS cells co-transfected with 16x TCF-tk-Luciferase reporter, Wnt and hSFRP-1);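 further: U2OS cells co-transfected with a TCF-tk luciferase reporter, a Wnt vector, hSFRP-1 or empty vector and CMV-βgal, luciferase luminescence read in cell lysates alongside βgal activity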
measure name: pEC50
Conceptually, pEC50 converts a concentration in mol/L into minus its log10.

Below, 3 compounds whose answers are already recorded.
INSERT INTO results (compound, study_system, result) VALUES
  ('CN(CCNS(=O)(=O)c1cc(S(=O)(=O)c2ccccc2)ccc1C(F)(F)F)C(=O)NC1CCNCC1 [Example 881]', 'SFRP-1 (Homo sapiens, UniProt Q8N474)', 6.07),
  ('Nc1ccc(CNS(=O)(=O)c2cc(S(=O)(=O)c3ccccc3)ccc2C(F)(F)F)cc1 [Example 942]', 'SFRP-1 (Homo sapiens, UniProt Q8N474)', 6.68),
  ('CC(C)c1ccc(S(=O)(=O)c2ccc(F)cc2)cc1S(=O)(=O)NC1CCN(C(=S)Nc2ccccc2F)CC1 [Example 691]', 'SFRP-1 (Homo sapiens, UniProt Q8N474)', 5.07);

Exercise: Which measured pEC50 value corresponds to CCCc1ccc(S(=O)(=O)c2ccccc2)cc1S(=O)(=O)NCCc1ccncc1 [Example 859] ?
Key: 5.81
